Give measured pIC50 for each item. Keep answers brief.
Tested on: ApoB secretion, HepG2 cells
Assay: Quantification of the secretion of ApoB (HepG2 cells, immunoprecipitation, scintillation counting)
Type: cell-based
Settings: Homo sapiens, HepG2, 24 h, 24 hours of incubation
Give bare numbers, as −log10 of the molar value.

Problem: # pIC50 lookup, item COC(=O)C(c1ccccc1)N1CCN(c2ccc(NC(=O)c3c(C)cccc3-c3ccc(C(F)(F)F)cc3)cc2)CC1 (stereo not shown) [Co. No. 188]
Result: 8.00

Problem: # pIC50 lookup, item COC(=O)C(c1ccccc1)N1CCN(c2ccc(NC(=O)c3ccccc3-c3ccc(C(F)(F)F)cc3)c(C(F)(F)F)c2)CC1 (stereo not shown) [Co. No. 206]
Result: 6.11

Problem: # pIC50 lookup, item CCCNC(=O)C(c1ccccc1)C1CCN(c2ccc(NC(=O)c3ccccc3-c3ccc(Cl)c(Cl)c3)cc2)CC1 (stereo not shown) [Co. No. 83]
Result: 7.36

Continuing:
Problem: # pIC50 lookup, item CCCNC(=O)C(c1ccccc1)C1CCN(c2ccc(NC(=O)c3ccccc3OCc3ccccc3)cc2)CC1 (stereo not shown) [Co. No. 18]
Result: 6.69
